target.desc: UniProt:P00338
Listing of entries alongside the reported IC50.

# example entries with known answers
NS(=O)(=O)c1ccc(Cc2c(-c3ccccc3)nn(-c3nc(CO)cs3)c2C(F)(F)F)cc1 25.5 µM
NS(=O)(=O)c1ccc(C(=O)Nc2cn(-c3nc(C(=O)O)cs3)nc2-c2ccccc2)cc1 > 57 µM
NC(=O)c1ccc(Cc2c(-c3cccc(-c4ccccc4)c3)nn(-c3nc(C(=O)O)cs3)c2O)cc1 > 57 µM
O=C(O)c1csc(-n2nc(-c3ccc(F)c(F)c3)c(Cc3ccccc3)c2O)n1 > 57 µM
N#Cc1c(Cc2ccc(S(N)(=O)=O)cc2)c(-c2ccccc2)nn1-c1nc(C(=O)O)cs1 0.115 µM
O=C(O)c1csc(-n2nc(-c3ccccc3)cc2O)n1 > 57 µM
NS(=O)(=O)c1ccc(NCc2cn(-c3nc(C(=O)O)cs3)nc2-c2ccccc2)cc1 > 57 µM
O=C(O)c1csc(-n2nc(-c3cccc(C(F)(F)F)c3)cc2O)n1 > 57 µM

*Q* Please report the recorded IC50 for CC(=O)Nc1cc(-c2ccccc2)nn1-c1nc(C(=O)O)cs1 .
*A* > 57 µM

*Q* What does the data say about its IC50? Entry: NS(=O)(=O)c1ccc(Oc2cn(-c3nc(C(=O)O)cs3)nc2-c2ccccc2)cc1
*A* 0.124 µM

----------
Below are compounds with their IC50 as measured on UniProtKB P00338.
Give the number; µM is assumed, so skip it.

Consider the worked cases shown below.
O=C(O)c1csc(-n2nc(-c3ccc(F)c(F)c3)cc2O)n1 0.15
O=C(O)c1csc(-n2nc(-c3cccc(C(F)(F)F)c3)cc2O)n1 0.189
O=C(O)c1csc(-n2nc(-c3ccc(F)cc3F)cc2O)n1 0.084
O=C(O)c1csc(-n2nc(-c3cccc(Cl)c3)cc2O)n1 0.168

*Q* Using the record for NS(=O)(=O)c1ccc(Cc2c(-c3ccccc3)nn(-c3nc(C(=O)O)cs3)c2-c2ccncc2)cc1 , report its IC50.
*A* 6.23

*Q* Any idea what its IC50 is? The compound is COc1ccc(-c2cc(O)n(-c3nc(C(=O)O)cs3)n2)cc1
*A* 0.229

*Q* // lookup IC50 for NS(=O)(=O)c1ccc(Cc2cn(-c3nc(C(=O)O)cs3)nc2-c2ccc(F)c(F)c2)cc1
*A* 0.095

*Q* Which IC50 value belongs to O=C(O)c1csc(-n2nc(-c3ccc(F)cc3)cc2O)n1 ?
*A* 0.095

*Q* Which IC50 is reported for this compound? Cc1cc(-c2ccccc2)nn1-c1nc(C(=O)O)cs1
*A* 15.4

----------
target.desc: L-lactate dehydrogenase A chain (Homo sapiens)
attribute.measured: IC50 (nM)
Use nM as the unit, but write only the number.

Below are worked cases with known answers.
O=C(O)c1csc(-n2nc(-c3ccccc3)cc2C(F)(F)F)n1 22200
O=C(O)c1csc(-n2nc(-c3cccc(OC(F)(F)F)c3)cc2O)n1 299
O=C(O)c1csc(-n2nc(-c3ccc(Cl)cc3)cc2C(F)(F)F)n1 26600
O=C(O)c1csc(-n2nc(-c3cc(F)cc(F)c3)cc2O)n1 110

*Q* Given O=C(O)c1csc(-n2nc(-c3cccc4ccccc34)cc2O)n1 , state its recorded IC50.
*A* 213

*Q* Bench note: what IC50 did O=C(O)c1csc(-n2nc(-c3ccccc3F)cc2O)n1 show?
*A* 134
